# % inhibition of scanMAX Kinase profiling values compiled below
tested on: scanMAX kinase panel (EGFR mutant, ERBB2, ERBB4); assay: DiscoverX (eurofin) KINOMEscan (scanMAX platform) kinase profiling; type: binding; details: EGFR(L747-E749del, A750P)
Expressed in %, but write only the number.

Some compounds with recorded % inhibition of scanMAX Kinase profiling:
C=CC(=O)Nc1cc(Nc2cc(N3OCC[C@@H]3c3cc(F)cc(F)c3)ncn2)c(OC)cc1N1CCC(N2C[C@@H]3C[C@H]2CO3)CC1	95
C=CC(=O)Nc1cc(Nc2cc(N3OCC[C@@H]3c3cc(F)cc(F)c3)ncn2)c(OC)cc1N1CCC(N2CCOCC2)CC1	100
C=CC(=O)Nc1cc(Nc2cc(N3OCC[C@@H]3c3ccccc3)ncn2)c(OC)cc1N1CCC(N2CCN(C)CC2)CC1	100

Which % inhibition of scanMAX Kinase profiling is reported for this compound? `C=CC(=O)Nc1cc(Nc2cc(N3OCC[C@@H]3c3cc(F)cc(F)c3)ncn2)c(OC)cc1N1CCC(N2C[C@H]3C[C@@H]2CO3)CC1`
91

Data request, read-out % inhibition of scanMAX Kinase profiling, for `C=CC(=O)Nc1cc(Nc2cc(N3OCC[C@@H]3c3cc(F)cc(F)c3)ncn2)c(OC)cc1N1CCC(N2CCN(C3CC3)CC2)CC1`
98
